- assay summary: Inhibition of Aurora A kinase in human HeLa Kyoto cells assessed as induction of defective chromosome alignment during metaphase incubated for 20 hrs
endpoint: EC50
Don't forget the unit after the number, please.

INPUT: Returns the measured EC50 for the input compound. Input: `CCc1ccc(/N=C2\S/C(=C\c3ccnc(Nc4ccc(C(=O)O)cn4)c3)C(=O)N2C)cc1`
OUTPUT: 6 µM
